Examples of compounds with documented % inhibition male (individual replicates) R4 follow.
system: P. falciparum male gametocytes; test: P. falciparum Dual Gamete Formation Assay (PfDGFA), male readout (exflagellation); type: cell-based, Plasmodium falciparum NF54; conditions: PfDGFA at 2µM, 24h preincubation with gametocytes prior to induction of gametogenesis; replicate R4
Please state the figure in %; there is no need to write the unit.

Below, each entry is followed by its recorded % inhibition male (individual replicates) R4 result.
Cc1cc(N2CCN(C)CC2)nc2ccc(NC(=O)Cc3cccc(C(F)(F)F)c3)cc12; -7.6
CCc1c(CCNCCCCCCNCCc2ccc(Br)cc2)ccc(OC)c1OC.Cl; 22.9
O=C(O)C(F)(F)F.c1cc(CNCCN2CCNCC2)cc(-c2ccc(-c3nc4ccccc4[nH]3)cc2)c1; -15.3

Could you tell me which % inhibition male (individual replicates) R4 is on file for Cc1c(Cc2ccccc2Br)cnc2nc(N)nc(N)c12.Cl ?
3.9

Could you tell me which % inhibition male (individual replicates) R4 is on file for CNCCNCc1ccc(-c2cccc(-c3nc4cc(F)ccc4[nH]3)c2)cc1.O=C(O)C(F)(F)F ?
-19.2

Could you tell me which % inhibition male (individual replicates) R4 is on file for CCCCOc1ccc(N2C(N)=NC(N)=NC2(C)C)cc1.Cl ?
-28.5

Could you tell me which % inhibition male (individual replicates) R4 is on file for Nc1nc(N)c2c(ccc3c2ccn3CCCCO)n1 ?
-1.8

Could you tell me which % inhibition male (individual replicates) R4 is on file for CNCCCCCCOc1ccc(CC(C)NCC(O)c2cccc(C(F)(F)F)c2)cc1.Cl (centres unmarked) ?
4.2
